# run.description: Displacement of [3H]-EMPA from human orexin 2 receptor expressed in CHO cells incubated for 2 hrs by whole cell radioligand binding assay
# Type: cell-based
Recorded pKi values for a group of compounds are listed next.
recorded.metric: pKi

{"columns": ["structure.notation", "recorded.metric", "endpoint.result"],
 "data": [
  ["Cc1ccc(-n2nccn2)c(C(=O)N2CCN(c3nc4cc(Cl)ccc4o3)CC[C@H]2C)c1", "pKi", 8.53],
  ["C[C@H](Sc1nc(-c2ccco2)nc2ccccc12)C(=O)N1CCc2ccccc2C1", "pKi", 5.5],
  ["Fc1ccccc1COc1cccc(CNCc2ccccn2)c1", "pKi", 4.28],
  ["O=C(CCCn1nnc2ccccc2c1=O)NC1Cc2ccccc2C1", "pKi", 4.4],
  ["O=C(c1ccc(-c2nc3ccccc3s2)o1)N(Cc1ccco1)Cc1ccco1", "pKi", 5.5],
  ["Cc1ccc(C(=O)[C@H](C)Oc2cccc(N3C(=O)[C@H]4[C@H](C)C=CC[C@@H]4C3=O)c2)cc1", "pKi", 4.97],
  ["Cc1cccc(C)c1NC(=O)CCCN1C(=O)c2cccnc2C1=O", "pKi", 4.56],
  ["COc1cccc(-c2nc(C(=O)OCc3cccnc3)c(C)[nH]2)c1", "pKi", 4.64],
  ["Cc1nc2cc(F)cc(C(=O)NCCOc3ccc4ccccc4c3)c2nc1C", "pKi", 5.83],
  ["CN(CCc1cccc2ccccc12)C(=O)c1c[nH]c(=O)c(Cl)c1", "pKi", 4.89],
  ["CCN(Cc1cccnc1)C(=O)CN(c1ccc(OC)nc1)S(=O)(=O)c1ccccc1C", "pKi", 8.17]
]}

* * *

# system: UniProt O43614
# Sequence (O43614 whole entry): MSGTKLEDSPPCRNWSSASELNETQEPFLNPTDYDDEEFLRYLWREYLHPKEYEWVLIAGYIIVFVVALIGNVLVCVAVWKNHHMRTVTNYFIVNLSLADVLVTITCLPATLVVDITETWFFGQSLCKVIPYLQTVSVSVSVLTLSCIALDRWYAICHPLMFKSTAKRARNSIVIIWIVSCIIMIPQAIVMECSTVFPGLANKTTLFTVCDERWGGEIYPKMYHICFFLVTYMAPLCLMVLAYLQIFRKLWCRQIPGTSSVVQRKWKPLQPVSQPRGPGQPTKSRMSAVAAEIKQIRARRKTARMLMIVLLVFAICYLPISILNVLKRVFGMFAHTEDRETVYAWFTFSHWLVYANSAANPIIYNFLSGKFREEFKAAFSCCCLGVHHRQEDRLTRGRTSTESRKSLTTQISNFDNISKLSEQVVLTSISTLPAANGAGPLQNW
# run.description: Agonist activity at human orexin 2 receptor expressed in CHO cells assessed as increase in calcium mobilization incubated for 120 secs by Fluo-4AM dye based fluorescence assay
# Format: functional, cell-based
# condition.info: time 120.0 sec
Activity calls are given as the source filed them. The rule behind the calls is not given here.

{"columns": ["structure.notation", "system", "pEC50"],
 "data": [
  ["O=C(c1sc2cccc(F)c2c1Cl)N1CCN(Cc2ccco2)CC1", "UniProt O43614", "inactive"],
  ["Cc1[nH]c2ccccc2c1[C@@H]1c2ccccc2C(=O)N1CCC(=O)N1CCN(c2ccccn2)CC1", "UniProt O43614", "inactive"],
  ["O=C(COc1ccc(-c2ccccc2)cc1)c1ccc(O)cc1O", "UniProt O43614", "inactive"],
  ["Cc1ccc(N2CCCN(C(=O)c3cn(C)c4ccccc34)CC2)nn1", "UniProt O43614", "inactive"],
  ["Cc1ccc(CSCc2ccc(-c3nc(-c4ccccn4)no3)o2)cc1", "UniProt O43614", "inactive"],
  ["O=C(c1ccccc1Cc1ccccc1)N1CCN(Cc2csc(-c3ccco3)n2)CC1", "UniProt O43614", "inactive"],
  ["O=C1NC(=O)C(=Cc2c(OCc3ccccc3F)ccc3ccccc23)C(=O)N1", "UniProt O43614", "inactive"],
  ["C[C@H](Sc1nc(-c2ccco2)nc2ccccc12)C(=O)N1CCc2ccccc2C1", "UniProt O43614", "inactive"],
  ["Cc1ccccc1CN(C)C(=O)Cc1csc(-c2cccc(F)c2)n1", "UniProt O43614", "inactive"],
  ["Cc1ccccc1OC[C@@H]1CCCN(C(=O)CCc2nc(-c3ccccn3)no2)C1", "UniProt O43614", "inactive"]
]}

* * *

# Organism: Homo sapiens
# run.description: Displacement of [3H]-EMPA from human orexin 2 receptor expressed in CHO cells incubated for 2 hrs by whole cell radioligand binding assay relative to control
# Type: cell-based
# Set-up: concentration or dose not given beside the values
# condition.info: dose or concentration not given here

{"columns": ["structure.notation", "inhibition / %"],
 "data": [
  ["Cc1ccc(Oc2ncccc2NC(=O)c2ccc3c(c2)OCCCO3)c2c1CCC2", 67.1],
  ["C[C@@H](Oc1ccc2c(c1)oc(=O)c1ccccc12)C(=O)c1ccccc1", 63.7],
  ["Cc1ccc(CSCc2ccc(-c3nc(-c4ccccn4)no3)o2)cc1", 79.2],
  ["Cc1ccc(C(=O)[C@H](C)Oc2cccc(N3C(=O)[C@H]4[C@H](C)C=CC[C@@H]4C3=O)c2)cc1", 49.9],
  ["O=C(Nc1cccc(/C=C/c2ccccn2)c1)c1occc1COc1ccccc1", 39.9],
  ["Cc1nc2cc(F)cc(C(=O)NCCOc3ccc4ccccc4c3)c2nc1C", 61.7]
]}

* * *

# system: Orexin/Hypocretin receptor type 1 (Homo sapiens, UniProt O43613)
# Sequence (O43613 whole entry): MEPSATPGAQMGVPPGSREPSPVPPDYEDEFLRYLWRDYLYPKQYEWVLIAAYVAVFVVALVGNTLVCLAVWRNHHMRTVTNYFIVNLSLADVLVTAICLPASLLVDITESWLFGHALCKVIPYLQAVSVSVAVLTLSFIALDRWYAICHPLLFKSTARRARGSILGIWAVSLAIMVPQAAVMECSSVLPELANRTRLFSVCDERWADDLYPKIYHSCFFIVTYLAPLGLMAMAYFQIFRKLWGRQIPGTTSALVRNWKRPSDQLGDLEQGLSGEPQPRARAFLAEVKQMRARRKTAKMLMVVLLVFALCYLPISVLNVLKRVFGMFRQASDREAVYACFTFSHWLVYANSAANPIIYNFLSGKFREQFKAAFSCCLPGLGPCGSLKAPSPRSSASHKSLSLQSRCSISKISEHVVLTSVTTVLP
# run.description: Displacement of [3H]-[…] from human orexin 1 receptor expressed in CHO cells incubated for 2 hrs by whole cell radioligand binding assay
pKi: −log10 of the molar value.
Overview of recorded pKi for various compounds
recorded.metric: pKi

{"columns": ["structure.notation", "recorded.metric", "endpoint.result"],
 "data": [
  ["Cc1nc(C(=O)N2CCC[C@H]2Cc2nnc(-c3ccccc3)o2)c(-c2ccccc2F)s1", "pKi", 8.41],
  ["Cc1cccc(C)c1NC(=O)CCCN1C(=O)c2cccnc2C1=O", "pKi", 4.47],
  ["CN(CCc1cccc2ccccc12)C(=O)c1c[nH]c(=O)c(Cl)c1", "pKi", 4.83],
  ["Cc1ccc(CSCc2ccc(-c3nc(-c4ccccn4)no3)o2)cc1", "pKi", 4.81],
  ["C[C@H](Sc1nc(-c2ccco2)nc2ccccc12)C(=O)N1CCc2ccccc2C1", "pKi", 5.05],
  ["c1ccc(-c2n[nH]cc2-c2nc3c(cnn3Cc3ccncc3)[nH]2)cc1", "pKi", 4.61],
  ["COc1cccc(-c2nc(C(=O)OCc3cccnc3)c(C)[nH]2)c1", "pKi", 4.83],
  ["CC1(C)OC[C@H](NC(=O)Nc2ccc(Br)cc2Br)[C@H](c2ccccc2)O1", "pKi", 5.87],
  ["Cc1ccccc1OC[C@@H]1CCCN(C(=O)CCc2nc(-c3ccccn3)no2)C1", "pKi", 4.82],
  ["Cc1ccccc1CN(C)C(=O)Cc1csc(-c2cccc(F)c2)n1", "pKi", 5.49]
]}

* * *

# pKi annotations
# run.description: Displacement of [3H]-EMPA from human orexin 2 receptor expressed in CHO cells incubated for 2 hrs by whole cell radioligand binding assay
# Assay type: cell-based
recorded.metric: pKi

{"columns": ["structure.notation", "recorded.metric", "endpoint.result"],
 "data": [
  ["Cc1ccc(CSCc2ccc(-c3nc(-c4ccccn4)no3)o2)cc1", "pKi", 5.07],
  ["c1ccc(-c2n[nH]cc2-c2nc3c(cnn3Cc3ccncc3)[nH]2)cc1", "pKi", 4.82],
  ["C[C@@H](Oc1ccc2c(c1)oc(=O)c1ccccc12)C(=O)c1ccccc1", "pKi", 5.27],
  ["Cc1ccccc1CN(C)C(=O)Cc1csc(-c2cccc(F)c2)n1", "pKi", 6.18],
  ["Cc1nc(C(=O)N2CCC[C@H]2Cc2nnc(-c3ccccc3)o2)c(-c2ccccc2F)s1", "pKi", 6.7],
  ["CC1(C)OC[C@H](NC(=O)Nc2ccc(Br)cc2Br)[C@H](c2ccccc2)O1", "pKi", 8.18],
  ["Cc1ccc(-c2nc(CC(=O)N(C)Cc3c(F)cccc3Cl)cs2)o1", "pKi", 5.55],
  ["O=C(Nc1cccc(/C=C/c2ccccn2)c1)c1occc1COc1ccccc1", "pKi", 4.98],
  ["Cc1ccc(Oc2ncccc2NC(=O)c2ccc3c(c2)OCCCO3)c2c1CCC2", "pKi", 5.19],
  ["Cc1ccc(-c2nc(CC(=O)N(C)[C@@H](C)c3ccc(F)cc3)cs2)o1", "pKi", 5.53]
]}

* * *

# system: Orexin/Hypocretin receptor type 1 (Homo sapiens, UniProt O43613)
# run.description: Displacement of [3H]-[…] from human orexin 1 receptor expressed in CHO cells incubated for 2 hrs by whole cell radioligand binding assay
pKi: −log10 of the molar value.

{"columns": ["structure.notation", "pKi"],
 "data": [
  ["Cc1ccc(-c2nc(CC(=O)N(C)Cc3c(F)cccc3Cl)cs2)o1", 4.93],
  ["Cc1ccc(C(=O)[C@H](C)Oc2cccc(N3C(=O)[C@H]4[C@H](C)C=CC[C@@H]4C3=O)c2)cc1", 5.11],
  ["O=C(c1ccc(-c2nc3ccccc3s2)o1)N(Cc1ccco1)Cc1ccco1", 5.45],
  ["Cc1ccc(Oc2ncccc2NC(=O)c2ccc3c(c2)OCCCO3)c2c1CCC2", 5.29],
  ["O=C1/C(=C/c2ccc(N3CCOCC3)cc2)c2ccccc2N1c1ccccc1", 4.75],
  ["O=C(Nc1cccc(/C=C/c2ccccn2)c1)c1occc1COc1ccccc1", 5.10],
  ["C[C@@H](Oc1ccc2c(c1)oc(=O)c1ccccc12)C(=O)c1ccccc1", 5.27],
  ["COc1ccc([C@H]2CCCN2C(=O)c2ccc(OCc3cn4ccccc4n3)cc2)c(OC)c1", 4.68],
  ["Cc1ccc(-c2nc(CC(=O)N(C)[C@@H](C)c3ccc(F)cc3)cs2)o1", 4.77],
  ["O=C(c1ccccc1Cc1ccccc1)N1CCN(Cc2csc(-c3ccco3)n2)CC1", 4.83]
]}

These measurements were taken from ChEMBL document CHEMBL4725416.
